Reference source: paper PMC2688486

Target: P. stipitis XR (xylose reductase, XYL1) (Scheffersomyces stipitis, UniProt P31867, K270R)
Construct: native full-length XYL1 from plasmid pY7, chromosomally integrated in S. cerevisiae TMB 3044 (gre3 deleted); crude cell extract
Sequence (P31867 whole entry K270R): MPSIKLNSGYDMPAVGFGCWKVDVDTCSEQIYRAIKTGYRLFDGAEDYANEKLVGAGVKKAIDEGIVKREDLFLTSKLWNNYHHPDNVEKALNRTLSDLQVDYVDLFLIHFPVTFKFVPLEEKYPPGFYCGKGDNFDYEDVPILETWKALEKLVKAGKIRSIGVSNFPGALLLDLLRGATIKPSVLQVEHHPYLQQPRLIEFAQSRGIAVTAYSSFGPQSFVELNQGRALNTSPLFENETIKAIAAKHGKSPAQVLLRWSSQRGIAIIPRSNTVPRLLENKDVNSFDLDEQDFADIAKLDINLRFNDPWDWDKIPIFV
Assay: NAD(P)H absorbance at […] nm, initial rates fitted to compulsory-order ternary-complex equation
Details: crude extract, xylose co-substrate varied, pH 7.0 triethanolamine, 30°C; kinetic dissociation constant; read-out: KiA
Each entry below carries its reported pKd.
pKd is a log-scale quantity: -log10 of the concentration expressed in molar.

STRUCTURE_NOTATION | pKd
NC(=O)C1=CN([C@@H]2O[C@H](COP(=O)(O)OP(=O)(O)OC[C@H]3O[C@@H](n4cnc5c(N)ncnc54)[C@H](OP(=O)(O)O)[C@@H]3O)[C@@H](O)[C@H]2O)C=CC1 | 4.64

Query pKd for `NC(=O)C1=CN([C@@H]2O[C@H](COP(=O)(O)OP(=O)(O)OC[C@H]3O[C@@H](n4cnc5c(N)ncnc54)[C@H](O)[C@@H]3O)[C@@H](O)[C@H]2O)C=CC1`
4.24
